- subjectOfTest: T1, TIGIT on TIGIT-over expressing NFAT-Luc/Jurkat effector cells (GenScript reporter cell line) (UniProt Q495A1 22-244, limits assumed)
- T1 sequence (looked up): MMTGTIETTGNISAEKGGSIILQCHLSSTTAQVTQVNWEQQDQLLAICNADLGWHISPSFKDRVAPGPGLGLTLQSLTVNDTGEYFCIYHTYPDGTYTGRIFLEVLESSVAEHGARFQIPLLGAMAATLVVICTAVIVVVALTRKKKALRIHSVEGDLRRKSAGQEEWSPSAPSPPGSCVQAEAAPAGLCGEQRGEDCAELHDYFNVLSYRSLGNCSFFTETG
- protocol: cell-based or functional assay
propertyName: Bottom (RLU)
Write down the numeric answer in RLU and omit the unit.

| binder | Bottom (RLU) |
| --- | --- |
| TIGIT-19 chimeric antibody (antibody, human IgG1, kappa, V domains shown, also called 19VH + 19VL) VH: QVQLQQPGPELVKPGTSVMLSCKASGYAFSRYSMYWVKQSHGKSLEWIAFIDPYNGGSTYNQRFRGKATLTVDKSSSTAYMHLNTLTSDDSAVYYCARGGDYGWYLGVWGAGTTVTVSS VL: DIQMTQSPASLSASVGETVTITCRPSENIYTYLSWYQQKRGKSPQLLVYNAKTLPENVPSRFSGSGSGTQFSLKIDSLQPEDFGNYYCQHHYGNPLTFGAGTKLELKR | 11100 |

Now for the binder whose Bottom (RLU) we want.
Per the record, TIGIT-100 chimeric antibody (antibody, human IgG1, kappa, V domains shown, Full-length chimeric IgG1 kappa) VH: QVQLQQPGPELVKPGASVKISCKASGYSFTDYNMNWVKQSNGKSLEWIGVINPNSGTDNYNQKFKGKATLTVDQSSSTAYMQLNSLTSEDSAVYFCARGVYFGNYFDSWGQGTTLTVSS VL: DIVMTQSPASLSASVGETVTITCRASENIYSSLAWYQQKQGKSPQLLVFNAKTLTEGVPSRFSGSGSGTQFSLKINSLQPEDFGSYYCQHHYGAPWTFGGGTKLEIKR has Bottom (RLU) of 4520
